# Assay Explanation: Mouse plasma pharmacokinetics
# Condition Info: BALB/c, mouse, in vivo, iv, 3 mg/kg
Endpoint Label: half-life (h)
Write the number in h without appending the unit.

CC1(C)C2CN(c3ccc4nc5ccc(N6CC7C(C6)C7(C)C)cc5[s+]c4c3)CC21 (stereo not shown) has a reported half-life of 10

====

# MIC annotations
# System: E. coli ATCC25922
# Assay Explanation: MIC assay, serial dilution
# Condition Info: Escherichia coli, ATCC25922, E. coli ATCC25922

Molecule	Endpoint Label	Endpoint Result
c1cc2nc3c(N4CCOCC4)cc(N4CCCC4)cc3[s+]c2cc1N1CCCC1 [Compound 123]	MIC	> 100 µg/mL
c1cc2nc3ccc(N4CCCOCC4)cc3[s+]c2cc1N1CCCOCC1 [Compound 141]	MIC	> 100 µg/mL

CC1(C)C2CN(c3ccc4nc5ccc(N6CC7C(C6)C7(C)C)cc5[s+]c4c3)CC21 (stereo not shown) [Compound 1] has a reported MIC of 4 µg/mL

CC(C)(C)c1cc(N2CC3C(C2)C3(C)C)cc2[s+]c3cc(N4CC5C(C4)C5(C)C)cc(N4CC5C(C4)C5(C)C)c3nc12 (stereo not shown) [Compound 126] has a reported MIC of > 100 µg/mL

CCN(CC)c1cc(N2CCCC2)cc2[s+]c3cc(N4CCCC4)ccc3nc12 [Compound 117] has a reported MIC of 25 µg/mL

c1cc2nc3ccc(N4CC5CNCC5C4)cc3[s+]c2cc1N1CC2CNCC2C1 (stereo not shown) [Compound 134] has a reported MIC of > 100 µg/mL

CC1(C)C2CN(c3ccc4nc5ccc(N6C7CCCC6CC7)cc5[s+]c4c3)CC21 (stereo not shown) [Compound 147] has a reported MIC of 100 µg/mL
